biological target: DAP epimerase (DapF); construct: C-terminal hexahistidine tag; experiment: DAP dehydrogenase-coupled assay, […] h pre-incubation, slow-binding; assay type: biochemical, Anabaena sp. YBS01
READOUT: IC50 (µM)
Give the value in µM but do not write µM after it.

Prompt line: # IC50 lookup, item C[C@](N)(CCC[C@H](N)C(=O)O)C(=O)O [L,L-α-methylDAP]
Response line: 120

----------
target: DAP epimerase (DapF); construct: C-terminal hexahistidine tag; test: X-ray crystal structure ([…] Å); DAP dehydrogenase-coupled inhibition assay after […] h incubation; type: biochemical, Anabaena sp. YBS01
READOUT: pIC50
Quick note: pIC50 means taking -log10 of the concentration in moles per liter.

Prompt line: Fill blank: measured pIC50 of the compound C[C@@](N)(CCC[C@H](N)C(=O)O)C(=O)O is ____.
Response line: 3.80
